# experimental.target: human thrombin (Homo sapiens)
# Construct: human thrombin
# assay.procedure: Inactivation kinetics of human thrombin (chromogenic substrate H-D-Phe-Pip-Arg-pNA)
# Type: biochemical
# experimental.setup: TABLE 5, phenyl esters; 25° C., pH 7.5; inactivation phase; N.I. = non-inactivator
# Experimental: The inactivating or inhibitory properties of the coumarin derivatives were tested with respect to a certain number of enzymes: human leukocyte elastase, bovine α-chymotrypsin, human thrombin and bovine trypsin. […]
outcome.measure: Ki/KI or kobs/[I], Thrombin

>>> df
                         compound_structure              outcome_measure     value_measured
0        O=C(Oc1cc(F)ccc1F)c1cc2ccccc2oc1=O  Ki/KI or kobs/[I], Thrombin               N.I.
1  O=C(Oc1c(Cl)cccc1Cl)c1cc2cc(CCl)ccc2oc1=O  Ki/KI or kobs/[I], Thrombin  — — — — N.I. N.I.
2      O=C(Oc1cc(Cl)ccc1Cl)c1cc2ccccc2oc1=O  Ki/KI or kobs/[I], Thrombin               N.I.
3  O=C(Oc1cccc(Cl)c1Cl)c1cc2cc(CCl)ccc2oc1=O  Ki/KI or kobs/[I], Thrombin  — — — — N.I. N.I.

Query: What Ki/KI or kobs/[I], Thrombin value was documented for this compound, O=C(Oc1cc(Cl)cc(Cl)c1)c1cc2cc(CCl)ccc2oc1=O ?
Reply: N.I.
